- targetEntity: PD-L1 (human)
- Sequence (chain, as listed by the source): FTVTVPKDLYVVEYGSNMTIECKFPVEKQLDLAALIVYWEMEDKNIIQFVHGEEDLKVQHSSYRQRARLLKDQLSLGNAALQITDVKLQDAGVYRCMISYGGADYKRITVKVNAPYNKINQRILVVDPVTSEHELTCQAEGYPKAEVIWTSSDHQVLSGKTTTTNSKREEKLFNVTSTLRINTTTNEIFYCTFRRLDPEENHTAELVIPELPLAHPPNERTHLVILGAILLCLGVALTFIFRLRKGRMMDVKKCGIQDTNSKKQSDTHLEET
- assayOverview: flow cytometry, CHO cells expressing PD-L1
parameterMeasured: MFI at 33.3 nM (MFI)

Please report MFI at 33.3 nM for the following binder: variant CD80 Q33L/E35D/M47I/N48D/A71G (Fc fusion) VIHVTKEVKEVATLSCGHNVSVEELAQTRIYWLKDKKMVLTMMSGDIDIWPEYKNRTIFDITNNLSIVILGLRPSDEGTYECVVLKYEKDAFKREHLAEVT
31200

Please report MFI at 33.3 nM for the following binder: variant CD80 E35D/D46E/M47V/V68M/D90G/K93E (Fc fusion) VIHVTKEVKEVATLSCGHNVSVEELAQTRIYWQKDKKMVLTMMSGEVNIWPEYKNRTIFDITNNLSIMILALRPSDEGTYECVVLKYEKGAFEREHLAEVT
71900

Please report MFI at 33.3 nM for the following binder: variant CD80 E35D/M47I/L85Q/D90G (Fc fusion) VIHVTKEVKEVATLSCGHNVSVEELAQTRIYWQKDKKMVLTMMSGDINIWPEYKNRTIFDITNNLSIVILALRPSDEGTYECVVQKYEKGAFKREHLAEVT
35700

Please report MFI at 33.3 nM for the following binder: variant CD80 E35D/M47L/A71G/L85M/F92Y (Fc fusion) VIHVTKEVKEVATLSCGHNVSVEELAQTRIYWQKDKKMVLTMMSGDLNIWPEYKNRTIFDITNNLSIVILGLRPSDEGTYECVVMKYEKDAYKREHLAEVT
46700

P. variant CD80 E35D/T41S/M43V/M47I/L70M/A71G (Fc fusion) VIHVTKEVKEVATLSCGHNVSVEELAQTRIYWQKDKKMVLSMVSGDINIWPEYKNRTIFDITNNLSIVIMGLRPSDEGTYECVVLKYEKDAFKREHLAEVT
Q. variant CD80 Q27H/E35D/M47I/L85Q/D90G (Fc fusion) VIHVTKEVKEVATLSCGHNVSVEELAHTRIYWQKDKKMVLTMMSGDINIWPEYKNRTIFDITNNLSIVILALRPSDEGTYECVVQKYEKGAFKREHLAEVT
R. variant CD80 E35D/M47V/N48K/V68M/K89N (Fc fusion) VIHVTKEVKEVATLSCGHNVSVEELAQTRIYWQKDKKMVLTMMSGDVKIWPEYKNRTIFDITNNLSIMILALRPSDEGTYECVVLKYENDAFKREHLAEVT
Hello, I need these entries ordered by MFI at 33.3 nM, highest reading first. Thanks! Please list each label once, in the requested order.
R, Q, P
(R: 89800 MFI, Q: 30700 MFI, P: 13000 MFI)
